Test system: HCT-116
Method: Growth inhibition of human HCT116 cells at 10 uM after 48 hrs by sulforhodamine B assay
Format: functional
Experimental Parameters: HCT-116, 48 h, values are per cent of control
Mark t for growth, % of control at 10 µM under 60%, f if at or over.

Smi: [3H]C([3H])([3H])N1C(=O)[C@@]2(c3ccccc31)N(C)C[C@@H](c1cccs1)[C@@]21Cc2ccccc2C1=O
Classification: f
--
Smi: [3H]N1C(=O)[C@@]2(c3ccccc31)N(C)C[C@@H](c1ccc(OC)cc1)[C@@]21Cc2ccccc2C1=O
Classification: f
--
Smi: [3H]C([3H])([3H])N1C(=O)[C@@]2(c3ccccc31)N(C)C[C@@H](c1ccc(Cl)cc1)[C@@]21Cc2ccccc2C1=O
Classification: t
--
Smi: [3H]N1C(=O)[C@@]2(c3ccccc31)N(C)C[C@@H](c1cccs1)[C@@]21Cc2ccccc2C1=O
Classification: f

Next, consider the following compound.
Q) Consider the compound [3H]N1C(=O)[C@@]2(c3ccccc31)N(C)C[C@@H](c1ccc(Cl)cc1)[C@@]21Cc2ccccc2C1=O . Is its growth, % of control at 10 µM strictly less than 60%?
A) t

---

Test system: CCRF-CEM
Method: Growth inhibition of human CCRF-CEM cells at 10 uM after 48 hrs by sulforhodamine B assay
Format: functional
Experimental Parameters: values are per cent of control
Mark T for growth, % of control at 10 µM under 90%, F if at or over.

Some solved cases for reference:
Smi: [3H]N1C(=O)[C@@]2(c3ccccc31)N(C)C[C@@H](c1ccc(Cl)cc1)[C@@]21Cc2ccccc2C1=O
Classification: T
//
Smi: [3H]C([3H])([3H])N1C(=O)[C@@]2(c3ccccc31)N(C)C[C@@H](c1ccc(Cl)cc1)[C@@]21Cc2ccccc2C1=O
Classification: F
//
Smi: [3H]C([3H])([3H])N1C(=O)[C@@]2(c3ccccc31)N(C)C[C@@H](c1ccc(OC)cc1)[C@@]21Cc2ccccc2C1=O
Classification: T

Next, consider the following compound.
Q) Consider the compound [3H]N1C(=O)[C@@]2(c3ccccc31)N(C)C[C@@H](c1ccc(OC)cc1)[C@@]21Cc2ccccc2C1=O . Is its growth, % of control at 10 µM strictly less than 90%?
A) T

---

System: EKVX
Method: Growth inhibition of human EKVX cells at 10 uM after 48 hrs by sulforhodamine B assay
Type: functional
Experimental Parameters: values are per cent of control
Would you kindly list growth, % of control at 10 µM for each of these molecules?
Answers are plain numbers, in %.

Example results:
Smi: [3H]N1C(=O)[C@@]2(c3ccccc31)N(C)C[C@@H](c1ccc(OC)cc1)[C@@]21Cc2ccccc2C1=O
Quantitative Readout: 92.4

Smi: [3H]C([3H])([3H])N1C(=O)[C@@]2(c3ccccc31)N(C)C[C@@H](c1cccs1)[C@@]21Cc2ccccc2C1=O
Quantitative Readout: 107

Smi: [3H]N1C(=O)[C@@]2(c3ccccc31)N(C)C[C@@H](c1cccs1)[C@@]21Cc2ccccc2C1=O
Quantitative Readout: 97.5

Smi: [3H]N1C(=O)[C@@]2(c3ccccc31)N(C)C[C@@H](c1ccc(Cl)cc1)[C@@]21Cc2ccccc2C1=O
Quantitative Readout: 52.5

Smi: [3H]C([3H])([3H])N1C(=O)[C@@]2(c3ccccc31)N(C)C[C@@H](c1ccc(OC)cc1)[C@@]21Cc2ccccc2C1=O
Quantitative Readout: 67.3

Lab note: next molecule to report on.
Q) Report growth, % of control at 10 µM for [3H]C([3H])([3H])N1C(=O)[C@@]2(c3ccccc31)N(C)C[C@@H](c1ccc(Cl)cc1)[C@@]21Cc2ccccc2C1=O tested on EKVX.
A) 72.6

All figures here come from ChEMBL document CHEMBL1152855.
